system: UO-31 renal; assay: NCI-60 one-dose screen, 48 h (100 = growth as untreated, 0 = no growth, -100 = all killed); settings: 10 µM unless noted
Compounds without any hit were thinned out: in the full panel of roughly 83,000, 20% have a hit.
Measured growth accompanies every entry in the list below.
Measured parameter: growth (%)

Compound: COc1sc(/C=N/NC(=O)c2[nH]c3ccc(Br)cc3c2-c2ccccc2)cc1Cl
Target entity: UO-31 renal
Measured parameter: growth
Measurement unit: %
Recorded number: -5.09
--
Compound: CCCCNc1ccc2c3c(cccc13)C(=O)N(NCC(O)COc1ccc3c(C)cc(=O)oc3c1)C2=O (centres undefined)
Target entity: UO-31 renal
Measured parameter: growth
Measurement unit: %
Recorded number: 43.5
--
Compound: COc1cc(/C=N/NC(=O)c2ccc(OCc3nc4ccc(C)cc4[nH]3)cc2)cc(OC)c1OC
Target entity: UO-31 renal
Measured parameter: growth
Measurement unit: %
Recorded number: 66.2
--
Compound: O=C(CSc1nnc(-c2ccc(-c3nc4ccc(Cl)cc4[nH]3)cc2)o1)Nc1ccc(Br)cc1
Target entity: UO-31 renal
Measured parameter: growth
Measurement unit: %
Recorded number: 36.6
--
Compound: COc1ccc(/C=C/C(=O)c2ccc(S(=O)(=O)NCCNc3nc(N(C)C)nc(N4CCOCC4)n3)cc2)cc1
Target entity: UO-31 renal
Measured parameter: growth
Measurement unit: %
Recorded number: 74.5
--
Compound: O=C(NNC(=S)NC(=O)c1ccccc1)c1ccc(OCc2nc3ccc(Cl)cc3[nH]2)cc1
Target entity: UO-31 renal
Measured parameter: growth
Measurement unit: %
Recorded number: -76.1
--
Compound: O=C(N/N=C/c1ccc(Cl)cc1)c1ccc(OCc2nc3ccc(Cl)cc3[nH]2)cc1
Target entity: UO-31 renal
Measured parameter: growth
Measurement unit: %
Recorded number: 11.1
--
Compound: Nc1nn2c(-c3cc4cc(Br)ccc4oc3=O)ccnc2c1N=Nc1ccc(Br)cc1
Target entity: UO-31 renal
Measured parameter: growth
Measurement unit: %
Recorded number: 0.343
--
Compound: CC(C)(C)C(=O)C1CC(C#N)=C2C=Cc3c(ccc4ccccc34)N21 (centres undefined)
Target entity: UO-31 renal
Measured parameter: growth
Measurement unit: %
Recorded number: 90.5
--
Compound: COc1cccc(NC(=O)c2ccc(NC(=O)CCl)s2)c1
Target entity: UO-31 renal
Measured parameter: growth
Measurement unit: %
Recorded number: 62.1
--
Compound: O=C(N=Nc1c(O)[nH]c2ccc(Cl)cc12)c1ccc2nc(-c3ccc(Cl)cc3)[nH]c2c1
Target entity: UO-31 renal
Measured parameter: growth
Measurement unit: %
Recorded number: 87.3
--
Compound: C=CC[n+]1cccc2c3ccccc3ccc21
Target entity: UO-31 renal
Measured parameter: growth
Measurement unit: %
Recorded number: 56.5
--
Compound: Cc1cc(C(NC(=O)CCCCCNc2cccc3c2C(=O)N(C2CCC(=O)CC2=O)C3=O)c2cccc(N(C)C)c2)c(O)c2ncccc12 (centres undefined)
Target entity: UO-31 renal
Measured parameter: growth
Measurement unit: %
Recorded number: 8.84
--
Compound: O=C(Nc1nc2ccc([N+](=O)[O-])cc2s1)Nc1ccccc1F
Target entity: UO-31 renal
Measured parameter: growth
Measurement unit: %
Recorded number: 6.12
--
Compound: Cc1ccc(C(=O)C[n+]2cccc3c4ccccc4ccc32)cc1
Target entity: UO-31 renal
Measured parameter: growth
Measurement unit: %
Recorded number: 29.7
--
Compound: CNc1nc2ccccc2n2c(-c3ccc(O)c(O)c3)cnc12
Target entity: UO-31 renal
Measured parameter: growth
Measurement unit: %
Recorded number: 1.12
--
Compound: Cc1ccc(Nc2nnc(-c3c[nH]c4ccccc34)o2)c(C)c1
Target entity: UO-31 renal
Measured parameter: growth
Measurement unit: %
Recorded number: 26.4
--
Compound: CC[C@]12C=CCN3CC[C@@]4(c5ccc(OC)cc5N(C)[C@H]4[C@@](O)(C(=O)OC)[C@@H]1OC(=O)CCCC[P+](c1ccc(F)cc1)(c1ccc(F)cc1)c1ccc(F)cc1)[C@@H]32
Target entity: UO-31 renal
Measured parameter: growth
Measurement unit: %
Recorded number: 85.9
--
Compound: Nc1nn2c(-c3cc4cc(Br)ccc4oc3=O)ccnc2c1N=Nc1ccccc1
Target entity: UO-31 renal
Measured parameter: growth
Measurement unit: %
Recorded number: 30.2
